Biological target: T1, murine CD300C-Fc (mouse)
T1 construct: mouse IgG2a-Fc fusion (R&D Systems); the entry is the whole fusion chain; also called mCD300C; Mouse CD300C-Fc
T1 chain: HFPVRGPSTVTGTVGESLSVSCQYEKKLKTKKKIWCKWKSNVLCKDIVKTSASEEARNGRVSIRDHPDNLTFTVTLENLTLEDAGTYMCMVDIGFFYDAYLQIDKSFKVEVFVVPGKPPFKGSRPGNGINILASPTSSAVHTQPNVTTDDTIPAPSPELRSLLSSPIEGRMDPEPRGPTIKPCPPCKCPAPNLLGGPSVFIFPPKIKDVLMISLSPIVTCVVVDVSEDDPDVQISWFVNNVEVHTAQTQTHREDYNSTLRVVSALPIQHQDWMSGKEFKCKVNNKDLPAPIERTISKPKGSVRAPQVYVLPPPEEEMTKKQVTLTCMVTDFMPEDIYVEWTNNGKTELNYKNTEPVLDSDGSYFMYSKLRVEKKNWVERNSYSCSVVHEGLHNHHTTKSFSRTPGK
Assay: SPR (Carterra LSA), antibody immobilised, Fc fusion at 300 or 600 nM
Parameter SPR binding (control subtracted): see the listing below.

1. anti-CD300LB antibody CD-18 (antibody, V domains shown) VH: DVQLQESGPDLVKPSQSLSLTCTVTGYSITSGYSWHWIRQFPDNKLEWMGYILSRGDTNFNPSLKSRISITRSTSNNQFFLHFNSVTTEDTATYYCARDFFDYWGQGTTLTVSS VL: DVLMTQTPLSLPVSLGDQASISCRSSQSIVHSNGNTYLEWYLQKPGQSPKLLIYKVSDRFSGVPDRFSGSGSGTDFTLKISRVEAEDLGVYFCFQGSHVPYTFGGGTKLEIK
1.5

As a next step, examine the binder that follows.
Exam item: Which value of SPR binding (control subtracted) has been reported for anti-CD300LB antibody CD-16 (antibody, V domains shown) VH: QIQLVQSGPELKKPGETVKISCKASGYTFTDYSMHWVKQAPGKGLKWMAWINTETGEPTYADDFRGRFAFSLETSGRTAYLEINNLRNEDTATYFCVTYGSSYGMAYWGQGTSVTVSS VL: DIVLTQSPASLAVSLGQRATISCRASKSVSRSGYSYLHWYQQKPGQPPKLLIYLASKLESGVPARFSGSGSGTDFTLNIHPVEAEDAATYYCQHNREIPPTFGGGTKLEIK in the records?
Marked response: 34.5

Just for reference, patent US20240254227A1 is where these values come from.
